# protocol details: JC-1 mitochondrial signal, unstimulated myeloma cells – cell-based, JC-1 fluorescence, RPMI8226, 24 h, 100 nL compound, profiling panel (AID 1169); note: test concentration not given here
# experimental conditions: JC-1 mitochondrial potential fluorescence, higher = more signal
Classes based on z-score: category 1 (below -0.7), category 2 (-0.7 to below -0.2), category 3 (-0.2 or more)

Ask | Exam item: assign CC(C)N1CC=CC23O[C@@H]4C=CCCOC(=O)C4[C@H]2C(=O)N(CCCO)[C@@H]3C1=O (some centres not stated) to the correct category.
Reply | category 2

Ask | Could you tell me which band O=C(C1N=C(c2ccc(OCCCO)cc2)N(c2ccccc2)O1)N1CCCCC1 (configuration not stated) belongs to?
Reply | category 1

Ask | Band assignment needed for NC(=O)[C@H]1[C@@H]2C(=O)O[C@@H](c3ccccc3)[C@@H](c3ccccc3)N2[C@@H](c2ccc(OCCO)cc2)[C@]12C(=O)Nc1ccc(C#CCCO)cc12 please.
Reply | category 2

Ask | Determine which band this molecule sits in: COc1cc(NN2C(C(O)c3cc(OC)c(OC)c(OC)c3)C=CC3C(=O)N(C)C(=O)C32)cc(OC)c1OC (configuration not stated)
Reply | category 3

Ask | Bin this entry: COc1ccc(C#Cc2ccc3c(c2)[C@]2(C(=O)N3)[C@H](C(=O)O)[C@H]3C(=O)O[C@H](c4ccccc4)[C@H](c4ccccc4)N3[C@@H]2c2ccc(O)cc2)cc1
Reply | category 1

Ask | Bin? O=c1cccc(-c2ccc([N+](=O)[O-])cc2)o1
Reply | category 3

Ask | Which z-score category applies to Cc1ccc(C(C)CC(O)C2C=CC3C(=O)N(c4ccccc4)C(=O)C3N2Nc2ccccc2)o1 (configuration not stated) here?
Reply | category 3

Ask | Lab note: sort COc1ccc([Si](C)(C)[C@@H]2[C@@H](CCO)O[C@]3(C(=O)N(Cc4ccccc4)c4ccc(NC(=O)[C@H](C)O)cc43)[C@H]2C)cc1 into the matching z-score band.
Reply | category 1

Ask | Which bin should I file CC(C)N1C(=O)C[C@@](C(=O)O)(c2ccc([N+](=O)[O-])cc2)[C@H]1c1ccc(CO)cc1 under?
Reply | category 3

Ask | Lab note: which band did CCOC(=O)C1=C[C@@H](C(C)C)N(S(=O)(=O)c2ccc(C)cc2)[C@H]1c1ccc(C(F)(F)F)cc1 land in?
Reply | category 2

Ask | # classify by z-score band: COC(=O)[C@@]1(Cc2ccc(F)cc2)[C@H]2c3cc(C(=O)N4CCCC4)n(Cc4ccc(C)c(F)c4F)c3C[C@H]2CN1C(=O)c1ccccc1
Reply | category 2

====

# protocol details: small molecules captured by biotinylated probe aFST – biochemical, small-molecule microarray, fluorescence 635/667, stem cell growth factor project, primary screen (AID 1086);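 note: score merges 667 nm fluorescence with signal-to-noise of each printed compound spot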
# experimental conditions: higher = more signal
endpoint name: composite z-score
// return a plain number; no unit text

Short answer for CCOC(=O)C1=CC[C@@H](c2ccccc2)N(S(=O)(=O)c2ccc(C)cc2)[C@H]1c1ccccc1 : composite z-score was 0.77

Notebook: COc1ccc([Si](C)(C)[C@@H]2[C@@H](CCO)O[C@]3(C(=O)N(Cc4ccccc4)c4ccc(NC(=O)[C@H](C)O)cc43)[C@H]2C)cc1 , composite z-score read as 0.559

For reference, reported composite z-score for [N-]=[N+]=Nc1ccccc1[C@H]1OC(c2ccc(OCCCO)cc2)=N[C@@]1(Cc1ccccc1)C(=O)NCCN1CCOCC1 stands at 1.66

Reported composite z-score ( CS(=O)(=O)CCOC(=O)C1=CC(c2ccc(CO)cc2)=CC(C2CC2)N(Cc2sc3ccccc3c2Cl)C=C1C(=O)OCCS(C)(=O)=O (stereo not given) ) = 0.223

The reported composite z-score of the compound CO[C@H]1O[C@H](CO)[C@@H](OC(=O)Nc2ccc(Br)cc2)[C@@H]2OC(=O)[C@@H](Cc3ccccc3)C/C=C/C[C@H](Cc3ccccc3)C(=O)O[C@@H]12 was 0.0279
